Recorded below: log10(IC50), system IRAK4 enzyme (Homo sapiens, UniProt Q9NWZ3).
Record value = log10 of IC50 given in nM.

compound="COc1cncc(-c2ccc3[nH]c4nccc(N[C@H]5CC[C@H](N6CCOCC6)CC5)c4c3c2)c1 [Compound 17b]" endpoint_label=log10(IC50) recorded_measurement=0.86

Recall the reported log10(IC50) of N#Cc1cncc(-c2ccc3[nH]c4ncnc(N[C@H]5CC[C@H](N6CCOCC6)CC5)c4c3c2)c1 [Compound 6aao] on IRAK4 enzyme (Homo sapiens, UniProt Q9NWZ3) and write it down.
Sequence (Q9NWZ3 whole entry): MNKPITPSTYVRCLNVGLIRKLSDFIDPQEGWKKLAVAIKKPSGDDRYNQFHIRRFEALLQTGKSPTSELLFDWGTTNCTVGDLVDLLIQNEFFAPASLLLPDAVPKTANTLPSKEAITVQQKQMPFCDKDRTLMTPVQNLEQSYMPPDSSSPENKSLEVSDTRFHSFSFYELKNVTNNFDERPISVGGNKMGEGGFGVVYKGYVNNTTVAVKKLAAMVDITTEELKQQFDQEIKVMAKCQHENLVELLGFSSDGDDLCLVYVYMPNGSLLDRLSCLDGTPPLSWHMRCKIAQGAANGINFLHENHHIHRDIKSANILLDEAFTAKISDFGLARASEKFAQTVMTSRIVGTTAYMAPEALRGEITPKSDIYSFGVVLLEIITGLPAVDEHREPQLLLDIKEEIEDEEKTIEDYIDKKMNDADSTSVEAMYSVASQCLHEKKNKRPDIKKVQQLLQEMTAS
1.80

====

# Tested on: ISG promoter, THP1-Lucia™ ISG cell line
# Assay procedure: ISG promoter inhibition, THP1-Lucia ISG cell line
# Assay type: cell-based
# Run parameters: 0.1 μM, 1 μg/ml Poly(dA:dT)/LyoVec, 24 hours, read-out: ISG, % inhibition degree
Returns one of T or F; T when inhibition at 0.1 µM is >= 4%.

// inclusive: inhibition at 0.1 µM at least 4%? input: "COc1ccc(-c2ccc3[nH]c4ncnc(N[C@H]5CC[C@H](N6CCOCC6)CC5)c4c3c2)cn1"
T

// inclusive: inhibition at 0.1 µM at least 4%? input: "Fc1cncc(-c2ccc3[nH]c4ncnc(N[C@H]5CC[C@H](N6CCOCC6)CC5)c4c3c2)c1"
T

// inclusive: inhibition at 0.1 µM at least 4%? input: COc1cncc(-c2ccc3[nH]c4nccc(N[C@H]5CC[C@H](N6CCN(S(C)(=O)=O)CC6)CC5)c4c3c2)c1 [Compound 17c]
F

// inclusive: inhibition at 0.1 µM at least 4%? input: "Cn1cc(-c2ccc3[nH]c4ncnc(Nc5ccc(N6CCNCC6)cc5)c4c3c2)cn1"
T

// inclusive: inhibition at 0.1 µM at least 4%? input: "c1ncc(-c2ccc3[nH]c4ncnc(N[C@H]5CC[C@H](N6CCOCC6)CC5)c4c3c2)cn1"
T

// inclusive: inhibition at 0.1 µM at least 4%? input: "COC(=O)c1ccc2c(c1)[nH]c1ncnc(N[C@H]3CC[C@H](N4CCOCC4)CC3)c12"
F
